# System: GPR40 (Homo sapiens)
# Construct: expressed in transfected cells; host or cells: HEK293 cells stably expressing GPR40 (Hygromycin selection)
# Sequence (O14842 whole entry): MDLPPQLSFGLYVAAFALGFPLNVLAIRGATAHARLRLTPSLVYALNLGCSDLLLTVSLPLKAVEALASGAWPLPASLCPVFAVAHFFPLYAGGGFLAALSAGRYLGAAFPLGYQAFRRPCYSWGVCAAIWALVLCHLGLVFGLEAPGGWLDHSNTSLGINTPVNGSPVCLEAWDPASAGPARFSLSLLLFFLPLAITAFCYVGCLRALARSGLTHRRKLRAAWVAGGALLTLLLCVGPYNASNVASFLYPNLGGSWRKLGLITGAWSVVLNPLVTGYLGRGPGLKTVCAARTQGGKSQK
# Assay info: IP1 accumulation assay in HEK293 cells stably expressing GPR40
# Format: cell-based
# Recorded conditions: IP1 accumulation, HEK293 cells stably expressing GPR40, 2 hours at 37° C., % effect relative to AMG-1638; table of Biological Example 1
# Method: IP1 accumulation assay was used to evaluate the potency of compounds. […] Assay plate was incubated at room temperature for 60 min and then read at 665 nm/615 nm on an Envision plate reader (PerkinElmer). […] Dose curve was fitted and EC50 of each compound was calculated by using XLFit.
Outcome measure: EC50 (nM)

[a] COc1ccc(F)c(-c2ccc(COc3cccc([C@@H](CC(=O)O)C4CC4)c3)cc2C(C)(C)c2cn(CCCCCCCCCCCCCCCCCC(=O)NCCN(CCC(=O)NCCN)CCC(=O)NCCN)nn2)c1
[b] COc1ccc(C(=O)N(CC(C)(C)CCn2cc(CCCCCCCCCCCCCCC(=O)NCCCN(CC(=O)O)CC(=O)O)nn2)c2cccc(C)n2)c(N2CCC(COc3cc([C@@H](CC(=O)O)C4CC4)ccn3)CC2)c1
[c] COc1ccc(C(=O)N(CC(C)(C)CCCCCCn2cc(CCCCCCCCCCCCCC(=O)NCC[N+](C)(CCC(=O)NCCN)CCC(=O)NCCN)nn2)c2cccc(C)n2)c(N2CCC(COc3cc([C@@H](CC(=O)O)C4CC4)ccn3)CC2)c1
[d] COc1ccc(C(=O)N(CC(C)(C)CCn2cc(CCCCCCCCCCCCCCCC(=O)NCCC[N+](C)(CC(=O)[O-])CC(=O)O)nn2)c2cccc(C)n2)c(N2CCC(COc3cc([C@@H](CC(=O)O)C4CC4)ccn3)CC2)c1 (some centres unmarked)
rank_up(items): orders items by reported EC50 in ascending numerical order. Ranked list of labels, please, in the requested order.
c, d, b, a
